settings: in ethyl acetate, 303.15 K
measured quantity: solubility (mole fraction)
# print the numeric value only

Given C[C@@H](O)[C@H]1C(=O)N2C(C(=O)[O-])=C(SC3Cn4cnc[n+]4C3)[C@H](C)[C@H]12 (stereo partly specified) , respond with its solubility (mole fraction). 7.97e-05

====

conditions: in n-propanol, 283.15 K
measured quantity: solubility (mole fraction)
# print the numeric value only

Given C[C@@H](O)[C@H]1C(=O)N2C(C(=O)[O-])=C(SC3Cn4cnc[n+]4C3)[C@H](C)[C@H]12 (stereo partly specified) , respond with its solubility (mole fraction). 1.17e-05

====

settings: in acetonitrile, 323.15 K
measured quantity: solubility (mole fraction)
# print the numeric value only

Given C[C@@H](O)[C@H]1C(=O)N2C(C(=O)[O-])=C(SC3Cn4cnc[n+]4C3)[C@H](C)[C@H]12 (stereo partly specified) , respond with its solubility (mole fraction). 9.56e-05
